Tested on: AG06848 cell line
TEST_DESCRIPTION: Ability to enhance […] secretion using human fibroblast AG06848 cell line at 1 uM concentration
Assay type: functional
Set-up: unit not given here
MEASURED_ENDPOINT: Activity

> print(dat)
                               given.smiles  experimental.value
1  CC(C)[C@H]1C(=O)N[C@H](CO)Cc2cc(NC(=O)CCCCc3ccc(CCC(F)(F)C(F)(F)C(F)(F)C(F)(F)C(F)(F)C(F)(F)F)cc3)ccc2N1C                  20
2  CCCCCC(=O)Nc1ccc2c(c1)C[C@@H](CO)NC(=O)[C@H](C(C)C)N2C                  30
3  CCCCCCCCC#Cc1ccc2c(c1)C[C@@H](CO)NC(=O)[C@H](C(C)C)N2C                   0

We next turn to a different molecule, shown below.
Ask | Determine from records and report Activity for "CC(C)[C@H]1C(=O)N[C@H](CO)Cc2cc(NC(=O)/C=C/C=C/c3ccc(/C=C/C(F)(F)C(F)(F)C(F)(F)C(F)(F)C(F)(F)C(F)(F)F)cc3)ccc2N1C"
Reply | 10

====

System: AG06848 cell line
TEST_DESCRIPTION: Ability to enhance […] secretion using human fibroblast AG06848 cell line at 1 uM concentration
Type: functional
Parameters: unit not given here
MEASURED_ENDPOINT: Activity
Lab note: jot down the number only; don't add units.

> print(dat)
                               given.smiles       assay.system  experimental.value
1  CC(C)[C@H]1C(=O)N[C@H](CO)Cc2cc(NC(=O)/C=C/C=C/c3cc(C(F)(F)F)cc(C(F)(F)F)c3)ccc2N1C  AG06848 cell line                  20

Ask | Tell us which Activity value is on record for "CC(C)[C@H]1C(=O)N[C@H](CO)Cc2cc(NC(=O)CCCCc3cc(C(F)(F)F)cc(C(F)(F)F)c3)ccc2N1C"
Reply | 0

Ask | Give the reported value of Activity for this record: "CC(C)[C@H]1C(=O)N[C@H](CO)Cc2cc(NC(=O)CCCCc3ccccc3)ccc2N1C"
Reply | 30

====

System: AG06848 cell line
TEST_DESCRIPTION: Ability to enhance […] secretion using human fibroblast AG06848 cell line at 1 uM concentration
Assay type: functional
Design: unit not given here
Each entry below carries its reported Activity.
Please respond with just the number, no unit label.

Worked examples, 2 compounds total:
> print(dat)
                               given.smiles  measured.endpoint  experimental.value
1  C/C=C/C=C/C(=O)Nc1ccc2c(c1)C[C@@H](CO)NC(=O)[C@H](C(C)C)N2C           Activity                  10
2  CC(C)[C@H]1C(=O)N[C@H](CO)Cc2cc(NC(=O)/C=C/C=C/c3ccc(C(F)(F)F)cc3)ccc2N1C           Activity                  40

Ask | Using known records, supply Activity for "CC(C)[C@H]1C(=O)N[C@H](CO)Cc2cc(NC(=O)CCCCc3ccc(C(F)(F)F)cc3)ccc2N1C"
Reply | 30

Ask | Consider the compound "CC(C)[C@H]1C(=O)N[C@H](CO)Cc2cc(NC(=O)/C=C/C=C/c3ccccc3)ccc2N1C" . State its measured Activity.
Reply | 20
